- studySystem: human FAAH (Homo sapiens, UniProt O00519)
- Construct: host or cells: COS-7 cells, transient transfection; 13,000 g membrane fraction solubilised in 1% Triton X-100
- Sequence (O00519 whole entry): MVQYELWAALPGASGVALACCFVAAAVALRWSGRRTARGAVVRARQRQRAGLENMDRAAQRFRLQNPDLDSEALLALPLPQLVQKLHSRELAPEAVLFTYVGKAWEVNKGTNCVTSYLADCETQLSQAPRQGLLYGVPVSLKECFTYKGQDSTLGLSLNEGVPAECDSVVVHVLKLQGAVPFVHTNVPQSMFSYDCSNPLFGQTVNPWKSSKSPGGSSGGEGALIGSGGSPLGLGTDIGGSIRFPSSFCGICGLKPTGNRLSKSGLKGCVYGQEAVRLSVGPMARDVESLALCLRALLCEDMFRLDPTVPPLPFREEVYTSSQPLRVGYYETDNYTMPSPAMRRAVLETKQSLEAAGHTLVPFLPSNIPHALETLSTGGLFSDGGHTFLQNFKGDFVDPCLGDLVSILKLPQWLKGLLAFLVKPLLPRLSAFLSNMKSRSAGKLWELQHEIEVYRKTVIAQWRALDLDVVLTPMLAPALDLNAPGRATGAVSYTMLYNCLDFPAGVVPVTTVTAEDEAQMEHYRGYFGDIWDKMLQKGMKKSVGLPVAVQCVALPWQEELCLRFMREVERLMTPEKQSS
- testDescription: Human FAAH biochemical inhibition assay (AMC arachidonoyl amide fluorescence)
- statedConditions: Table 2, human FAAH (no asterisk); read-out: Activity (Ki)
pKi: −log10 of the molar value.
valueType: pKi

Some compounds with recorded pKi:
compound	reportedValue
OB(O)c1ccc(COCc2cccc(C(F)(F)F)c2)cc1F [II-72]	> 8.00
OB(O)c1c(F)cc(Oc2cccc(F)c2)cc1F [II-195]	> 8.00
Cc1cc(B(O)O)ccc1-c1ccccc1 [II-33]	7.00 to 8.00
OB(O)c1ccc(Oc2cc(F)c(F)c(F)c2)cc1 [II-263]	> 8.00
Cc1cc(NCc2ccc(B3OC(C)(C)C(C)(C)O3)cc2)ccc1F [II-187]	7.00 to 8.00

Reported pKi, compound OB(O)c1csc2c(Cl)cccc12 [II-23] : ____ 7.00 to 8.00

What does the record list as pKi for COC(=O)c1ccc(Oc2ccc(B(O)O)cc2)cc1 [II-284] ? > 8.00

Consider the compound shown here: OB(O)c1cccc(CCOc2ccccc2)c1 [II-121] What is its recorded pKi? 7.00 to 8.00

# credit: patent US8329675B2
